- subject_of_test: SARS-CoV-2 NSP3 macrodomain (Mac1) (Severe acute respiratory syndrome coronavirus 2, UniProt P0DTD1)
- protocol_notes: biochemical
- Assay type: binding
- setup_conditions: Single dose, concentration 200 μM; read-out: Average % competition
Quick list: inhibition at 200 µM per entry.
Just the number please, in %, no unit attached.

compound	value_observed
OCC(Nc1ncnc2[nH]ccc12)C1CC1 (centres unmarked)	85
CC(c1ccccc1)C(CO)Nc1ncnc2[nH]ccc12 (centres unmarked)	98
CC(C)(CO)Nc1ncnc2[nH]ccc12	56

Query: Item O=C(O)C(F)(F)F.OCC1(Nc2ncnc3[nH]ccc23)CCC1 has what recorded inhibition at 200 µM?
Response: 87

Query: Item O=C(O)C(F)(F)F.OCC1(Nc2ncnc3[nH]ccc23)CCCC1 has what recorded inhibition at 200 µM?
Response: 85

Query: Item CCC(C)(CO)Nc1ncnc2[nH]ccc12 (centres unmarked) has what recorded inhibition at 200 µM?
Response: 91

Query: Item OCCC(CO)Nc1ncnc2[nH]ccc12 (centres unmarked) has what recorded inhibition at 200 µM?
Response: 86

Query: Item CCC(CC)(CO)Nc1ncnc2[nH]ccc12 has what recorded inhibition at 200 µM?
Response: 89

###

- subject_of_test: SARS-CoV-2 NSP3 macrodomain (Mac1), P43 crystal form (Severe acute respiratory syndrome coronavirus 2, UniProt P0DTD1)
- Type: binding
- setup_conditions: ligand conformations modeled in Mac1 crystal structure
observed_property: Total number of conformations
Answer with the value's number alone.

Please review the following examples before continuing.
compound	Total number of conformations
CCC(Nc1ncnc2[nH]ccc12)C(C)(C)O (stereo not drawn) [AVI-3667]	1
C[C@@H]1CCN(c2ncnc3[nH]ccc23)[C@H](CO)C1 (racemic) [AVI-4064]	2
Cn1cc(CC(CO)Nc2ncnc3[nH]ccc23)cn1 (stereo not drawn) [AVI-3657]	1

Query: Item C[C@@H](O)[C@H](CO)Nc1ncnc2[nH]ccc12.O=C(O)C(F)(F)F [AVI-3730] has what recorded Total number of conformations?
Response: 1

Query: Item O=C(O)C(F)(F)F.OC[C@@H]1CC2(CC2)CN1c1ncnc2[nH]ccc12 [AVI-3710] has what recorded Total number of conformations?
Response: 2

Query: Item OCC(O)C1CCCN1c1ncnc2[nH]ccc12 (stereo not drawn) [AVI-3701] has what recorded Total number of conformations?
Response: 1

###

- subject_of_test: SARS-CoV-2 NSP3 macrodomain (Mac1), P43 crystal form (Severe acute respiratory syndrome coronavirus 2, UniProt P0DTD1)
- Assay type: binding
- setup_conditions: crystal soak, soak concentration 10 mM; DMSO background map, event 1
Quick list: PanDDA run, DMSO background map: 1-BDC per entry.
Answer with the value's number alone.

Please review the following examples before continuing.
compound	value_observed
CCn1c(C)nnc1Sc1cnc2ccccc2n1 [AVI-297]	0.05
O=C(O)C(c1ccccc1)n1sc2ccccc2c1=O (stereo not shown) [AVI-288]	0.26
c1ccc(-n2nnnc2CSc2nnc(NC3CC3)s2)cc1 [AVI-286]	0.11
Nc1nnc(SCCn2c(=O)oc3ccccc32)s1 [AVI-296]	0.06
CC(C)n1nnnc1SCc1c(C(=O)O)sc2cccc(F)c12 [AVI-291]	0.25

Query: Item O=C(O)C1CCCN1S(=O)(=O)c1cccc2nsnc12 (stereo not shown) [AVI-2] has what recorded PanDDA run, DMSO background map: 1-BDC?
Response: 0.2

Query: Item CC1CC(C(=O)O)CCN1C(=O)c1ccc2c(c1)NC(=O)CO2 (stereo not shown) [AVI-303] has what recorded PanDDA run, DMSO background map: 1-BDC?
Response: 0.13

###

- protocol_notes: Microsomal stability
- Assay type: in vitro ADME, mouse
- setup_conditions: liver microsomes, pH 7.4; mouse microsome stability; read-out: CLint (mouse) (µl/min/mg protein), mean
- Protocol: The assay was carried out in 96-well plates at 37°C. Reaction mixtures (25 μl) contained a final concentration of 1 μM compound, 0.5 mg/ml liver microsomes protein, and 1 mM NADPH and/or 1 mM UDPGA (with alamethicin) in 100 mM potassium phosphate (pH 7.4) with 3 mM MgCl2. […] The extent of metabolism was calculated as the disappearance of compounds, compared to the 0-min time incubation.
observed_property: microsomal CLint at 1 µM (µL/min/mg)
Just the number please, in µL/min/mg, no unit attached.

molecule	microsomal CLint at 1 µM (µL/min/mg)
CC(c1ccccc1)C(CO)Nc1ncnc2[nH]ccc12 (centres unmarked)	166

The record that follows has no microsomal CLint at 1 µM shown yet.
Query: Item O=C1CCCN1Nc1ncnc2[nH]c3cc(F)ccc3c12 [AVI-219, reference compound] has what recorded microsomal CLint at 1 µM?
Response: 53.1

###

Quick list: IC50 per entry.
- subject_of_test: SARS-CoV-2 NSP3 macrodomain (Mac1) (Severe acute respiratory syndrome coronavirus 2)
- protocol_notes: biochemical
- Format: binding
- setup_conditions: SARS CoV-2 macrodomain HTRF assay, dose-response; read-out: IC50

input_smiles	IC50
O[C@@H]1COC[C@H]1Nc1ncnc2[nH]ccc12	> 1 mM

The record that follows has no IC50 shown yet.
Query: Item O[C@H]1COC[C@@H]1Nc1ncnc2[nH]ccc12 has what recorded IC50?
Response: > 1 mM

###

- subject_of_test: SARS-CoV-2 NSP3 macrodomain (Mac1), P43 crystal form (Severe acute respiratory syndrome coronavirus 2)
- Type: binding
- setup_conditions: crystal soak, soak concentration 10 mM
observed_property: Pandda run, overall: Modeled

compound	observed_property	value_observed
CC(C)(C)C1CCC(CO)N(c2ncnc3[nH]ccc23)C1 (stereo not drawn)	Pandda run, overall: Modeled	TRUE
CC(C)(C)[C@@H]1CCN(c2ncnc3[nH]ccc23)[C@H](CO)C1	Pandda run, overall: Modeled	TRUE
O[C@@H]1CN(c2ncnc3[nH]ccc23)C[C@H]1F	Pandda run, overall: Modeled	TRUE
NC(=O)C1(O)CCN(c2ncnc3[nH]ccc23)C1 (stereo not drawn)	Pandda run, overall: Modeled	TRUE
O=C(O)C(F)(F)F.OC1([C@H]2CCCN2c2ncnc3[nH]ccc23)Cc2ccccc2C1	Pandda run, overall: Modeled	TRUE
O=C(O)C(F)(F)F.OC[C@H]1CC2(CN1c1ncnc3[nH]ccc13)OCCO2	Pandda run, overall: Modeled	TRUE
OCCC(CO)Nc1ncnc2[nH]ccc12 (stereo not drawn)	Pandda run, overall: Modeled	TRUE
CC1(C)CCC(CO)N(c2ncnc3[nH]ccc23)C1 (stereo not drawn)	Pandda run, overall: Modeled	TRUE
OCC1CC2(CCOCC2)CN1c1ncnc2[nH]ccc12 (stereo not drawn)	Pandda run, overall: Modeled	TRUE
OCC(Cc1ccoc1)Nc1ncnc2[nH]ccc12 (stereo not drawn)	Pandda run, overall: Modeled	TRUE

Query: Item OCC(CC(F)(F)F)Nc1ncnc2[nH]ccc12 (stereo not drawn) has what recorded Pandda run, overall: Modeled?
Response: TRUE

Query: Item CC1(C)C[C@@H](CO)N(c2ncnc3[nH]ccc23)C1.O=C(O)C(F)(F)F has what recorded Pandda run, overall: Modeled?
Response: TRUE

Query: Item OCC1CC2(CCC2)CN1c1ncnc2[nH]ccc12 (stereo not drawn) has what recorded Pandda run, overall: Modeled?
Response: TRUE

Query: Item C[C@@H](O)[C@H](CO)Nc1ncnc2[nH]ccc12.O=C(O)C(F)(F)F has what recorded Pandda run, overall: Modeled?
Response: TRUE

Query: Item OC[C@@H]1C[C@@H]2CCC[C@@H]2N1c1ncnc2[nH]ccc12 has what recorded Pandda run, overall: Modeled?
Response: TRUE

###

- subject_of_test: SARS-CoV-2 NSP3 macrodomain (Mac1) (Severe acute respiratory syndrome coronavirus 2, UniProt P0DTD1)
- protocol_notes: biochemical
- Type: binding
- setup_conditions: dose-response fit
observed_property: SARS CoV-2 macrodomain HTRF assay: Hillslope

Please review the following examples before continuing.
compound	value_observed
O[C@H]1CC[C@@H]2CCN(c3ncnc4[nH]ccc34)[C@@H]21	1.2
CC1CCCC(O)(CNc2ncnc3[nH]ccc23)C1 (centres unmarked)	1.0

Query: Item C[C@H]1CC[C@H](CO)N(c2ncnc3[nH]ccc23)C1 (racemic) has what recorded SARS CoV-2 macrodomain HTRF assay: Hillslope?
Response: 1.1

Query: Item OC1(CNc2ncnc3[nH]ccc23)CCC2(CC1)OCCO2 has what recorded SARS CoV-2 macrodomain HTRF assay: Hillslope?
Response: 1.2

Query: Item CC(Nc1ncnc2[nH]ccc12)C1(O)CCCCC1 (centres unmarked) has what recorded SARS CoV-2 macrodomain HTRF assay: Hillslope?
Response: 1.2

###

- subject_of_test: SARS-CoV-2 NSP3 macrodomain (Mac1), P43 crystal form (Severe acute respiratory syndrome coronavirus 2, UniProt P0DTD1)
- Format: binding
- setup_conditions: ligand conformations modeled in Mac1 crystal structure
Quick list: Total number of conformations per entry.
Answer with the value's number alone.

molecule	observed_property	value_observed
CC(CNC(=O)c1ccc2c(c1)CCC(=O)N2)C(=O)O (centres unmarked) [AVI-328]	Total number of conformations	2
O=C(O)C(F)(F)F.OC[C@H]1CC2(CN1c1ncnc3[nH]ccc13)OCCO2 [AVI-3702]	Total number of conformations	1
OC[C@@H]1C[C@H](F)CN1c1ncnc2[nH]ccc12 [AVI-609]	Total number of conformations	1

Query: Item OCC(Nc1ncnc2[nH]ccc12)C1CCC1 (centres unmarked) [AVI-3638] has what recorded Total number of conformations?
Response: 1

Query: Item CC(C)(C)C1CCCN1c1ncnc2[nH]ccc12 (centres unmarked) [AVI-6000] has what recorded Total number of conformations?
Response: 1

The origin of these recorded values is paper doi:10.1101/2024.08.25.609621.
